B1: Homeobox protein cut-like 2, residues 895 to 963; numbered along this chain, O14529 (parent)
chain: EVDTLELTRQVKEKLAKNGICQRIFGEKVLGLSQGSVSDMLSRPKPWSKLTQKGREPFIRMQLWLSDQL

- Variants of: B1
- Protocol notes: abundance fitness (aPCA) (normalised: wild type 0, dead -1); higher = more abundant; growth selection in yeast, the domain comes from the species named
- Test context: Homo sapiens
Reported abundance fitness values for the following variants.

{"Mutation id": "Q34S", "abundance fitness": -0.028}
{"Mutation id": "T51W", "abundance fitness": -0.033}
{"Mutation id": "R43A", "abundance fitness": -0.034}
{"Mutation id": "D39H", "abundance fitness": -0.279}
{"Mutation id": "L15N", "abundance fitness": -0.184}
{"Mutation id": "G54S", "abundance fitness": -0.092}
{"Mutation id": "E27N", "abundance fitness": -0.108}
{"Mutation id": "L65M", "abundance fitness": -0.294}
{"Mutation id": "L15F", "abundance fitness": -0.157}
{"Mutation id": "V2W", "abundance fitness": -0.137}
{"Mutation id": "Q62D", "abundance fitness": -0.654}
{"Mutation id": "Q10Y", "abundance fitness": -0.313}
{"Mutation id": "R23G", "abundance fitness": -0.103}
{"Mutation id": "F58R", "abundance fitness": -0.906}
{"Mutation id": "G19H", "abundance fitness": -0.374}
{"Mutation id": "C21Y", "abundance fitness": -0.41}
{"Mutation id": "G54I", "abundance fitness": 0.046}
{"Mutation id": "L65D", "abundance fitness": -0.841}
{"Mutation id": "N18F", "abundance fitness": -0.065}
{"Mutation id": "E56A", "abundance fitness": -0.08}
{"Mutation id": "K49P", "abundance fitness": -0.731}
{"Mutation id": "M61S", "abundance fitness": -0.606}
{"Mutation id": "E56T", "abundance fitness": -0.22}
{"Mutation id": "L7M", "abundance fitness": 0.055}
{"Mutation id": "V11C", "abundance fitness": -0.465}
{"Mutation id": "K45W", "abundance fitness": -0.313}
{"Mutation id": "K53E", "abundance fitness": -0.017}
{"Mutation id": "L41S", "abundance fitness": -0.234}
{"Mutation id": "W64H", "abundance fitness": -1.08}
{"Mutation id": "V2P", "abundance fitness": -0.244}
{"Mutation id": "E6H", "abundance fitness": -0.142}
{"Mutation id": "K53N", "abundance fitness": -0.233}
{"Mutation id": "Q22H", "abundance fitness": -0.239}
{"Mutation id": "E6G", "abundance fitness": -0.111}
{"Mutation id": "M61G", "abundance fitness": -0.735}
{"Mutation id": "L63H", "abundance fitness": 0.012}
{"Mutation id": "M61H", "abundance fitness": -0.812}
{"Mutation id": "V29R", "abundance fitness": -0.121}
{"Mutation id": "P46V", "abundance fitness": -0.415}
{"Mutation id": "L63M", "abundance fitness": 0.041}
{"Mutation id": "T8C", "abundance fitness": -0.022}
{"Mutation id": "W64P", "abundance fitness": -0.806}
{"Mutation id": "R23K", "abundance fitness": 0.047}
{"Mutation id": "W64S", "abundance fitness": -1.3}
{"Mutation id": "Q68K", "abundance fitness": 0.062}
{"Mutation id": "S42A", "abundance fitness": -0.014}
{"Mutation id": "K45Y", "abundance fitness": -0.265}
{"Mutation id": "L15C", "abundance fitness": -0.123}
{"Mutation id": "I20P", "abundance fitness": -0.226}
{"Mutation id": "F58M", "abundance fitness": -0.502}
{"Mutation id": "T51L", "abundance fitness": -0.082}
{"Mutation id": "G19N", "abundance fitness": -0.007}
{"Mutation id": "D3F", "abundance fitness": -0.139}
{"Mutation id": "S48H", "abundance fitness": -0.011}
{"Mutation id": "F25P", "abundance fitness": -1.05}
{"Mutation id": "R23F", "abundance fitness": -0.009}
{"Mutation id": "V29N", "abundance fitness": -0.551}
{"Mutation id": "L15D", "abundance fitness": -0.211}
{"Mutation id": "L65W", "abundance fitness": -0.44}
{"Mutation id": "S33K", "abundance fitness": 0.023}
{"Mutation id": "G26C", "abundance fitness": -0.02}
{"Mutation id": "E1C", "abundance fitness": 0.037}
{"Mutation id": "P46F", "abundance fitness": 0.039}
{"Mutation id": "L69P", "abundance fitness": -0.163}
{"Mutation id": "R60K", "abundance fitness": 0.15}
{"Mutation id": "L50S", "abundance fitness": -0.865}
{"Mutation id": "K53C", "abundance fitness": -0.405}
{"Mutation id": "T8R", "abundance fitness": -0.136}
{"Mutation id": "S48T", "abundance fitness": -0.085}
{"Mutation id": "W64N", "abundance fitness": -0.678}
{"Mutation id": "R43F", "abundance fitness": -0.101}
{"Mutation id": "Q34M", "abundance fitness": -0.06}
{"Mutation id": "D67G", "abundance fitness": 0.009}
{"Mutation id": "V29M", "abundance fitness": -0.104}
{"Mutation id": "E56C", "abundance fitness": -0.843}
{"Mutation id": "K17Y", "abundance fitness": -0.276}
{"Mutation id": "R23M", "abundance fitness": -0.207}
{"Mutation id": "T8H", "abundance fitness": -0.19}
{"Mutation id": "L7V", "abundance fitness": -0.023}
{"Mutation id": "K14F", "abundance fitness": 0.102}
{"Mutation id": "W47C", "abundance fitness": -1.01}
{"Mutation id": "E6W", "abundance fitness": -0.173}
{"Mutation id": "E13V", "abundance fitness": -0.235}
{"Mutation id": "S36D", "abundance fitness": 0.134}
{"Mutation id": "Q52D", "abundance fitness": 0.017}
{"Mutation id": "E1Q", "abundance fitness": -0.278}
{"Mutation id": "G26W", "abundance fitness": -0.591}
{"Mutation id": "G35H", "abundance fitness": -0.043}
{"Mutation id": "W64Q", "abundance fitness": -0.907}
{"Mutation id": "N18H", "abundance fitness": 0.001}
{"Mutation id": "L30C", "abundance fitness": -0.234}
